Cited source: PubChem BioAssay AID1645868

# Tested System: OTU domain-containing protein 3 (Homo sapiens) (UniProt Q5T2D3)
# Sequence (Q5T2D3 whole entry, looked up, the tested form may be a part): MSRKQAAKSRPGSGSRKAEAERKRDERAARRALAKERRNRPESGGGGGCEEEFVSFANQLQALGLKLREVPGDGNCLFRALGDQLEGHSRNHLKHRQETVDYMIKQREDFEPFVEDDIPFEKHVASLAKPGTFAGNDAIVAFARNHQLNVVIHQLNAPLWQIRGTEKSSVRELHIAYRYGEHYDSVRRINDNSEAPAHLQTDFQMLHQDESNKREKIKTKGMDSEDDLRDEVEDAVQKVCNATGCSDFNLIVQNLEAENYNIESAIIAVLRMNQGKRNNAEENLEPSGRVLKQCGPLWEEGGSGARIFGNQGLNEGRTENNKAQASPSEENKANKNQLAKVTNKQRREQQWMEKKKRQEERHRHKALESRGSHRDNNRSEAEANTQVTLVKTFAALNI
# Run Description: Validation of screening hits, potency titration, in vitro enzymatic, OTU domain-containing protein 3 DUB inhibitors (AID 1645868)
# Condition Info: purified OTUD3, ubiquitin-rhodamine cleavage fluorescence, 2 h
Calls of active or inactive are those of the source.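 The calls were made as follows: active = maximal percent inhibition of the deubiquitinase OTUD3 of at least 30% across the tested doses; inactive = the rest.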
Could you please pick one outcome from this set? true = active, false = inactive

Take a look at these entries with their results.
COc1ccc(-n2ccn3c(CCC(=O)NCc4ccc(F)cc4)nnc3c2=O)cc1: true
Fc1ccc(Oc2nc(CN3CCOCC3)nc3sc4c(c23)CCCC4)c(Cl)c1: false
Cc1cccc(NC(=O)c2noc3c2CCc2sccc2-3)n1: false

Next item in the queue.
stdin: Would you mind telling me which call this test gave `COc1cc2c(c(OCC(=O)Nc3ccc4c(c3)OCCO4)c1)C(=O)O[C@@H](C)CCCC(=O)CCCCC2` ?
stdout: true

====

# Tested System: OTU domain-containing protein 3 (Homo sapiens) (UniProt Q5T2D3)
# Run Description: Validation of screening hits, potency titration, in vitro enzymatic, OTU domain-containing protein 3 DUB inhibitors (AID 1645868)
# Condition Info: purified OTUD3, ubiquitin-rhodamine cleavage fluorescence, 2 h
Calls of active or inactive are those of the source.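 Rule for the calls: active = maximal percent inhibition of the deubiquitinase OTUD3 of at least 30% across the tested doses; inactive = the rest.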
Could you please pick one outcome from this set? class 1 = active, class 0 = inactive

Take a look at these entries with their results.
Cc1cc(SCc2ncon2)c(C)cc1Cl: class 0
O=C(CNc1nc(Nc2ccccc2F)nc(Nc2ccccc2F)n1)Nc1ccccc1: class 1
Cn1cc2cccc(NC(=O)c3ccc(F)cc3)c2n1: class 0

stdin: Would you mind telling me which call this test gave `O=C1Oc2nc3ccccc3cc2CN1Cc1ccco1` ?
stdout: class 1

====

# Tested System: OTU domain-containing protein 3 (Homo sapiens)
# Run Description: Validation of screening hits, potency titration, in vitro enzymatic, OTU domain-containing protein 3 DUB inhibitors (AID 1645868)
# Condition Info: purified OTUD3, ubiquitin-rhodamine cleavage fluorescence, 2 h
The source made the active and inactive calls.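 How the source made its calls: active means maximal percent inhibition of the deubiquitinase OTUD3 of at least 30% across the tested doses; inactive means the rest.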
Measured IC50 by item

Cc1ccc(CN2C(=O)c3cc4ccccc4n3CC2(C)C(=O)NCc2ccccc2)o1 (stereo not drawn): > 50 µM (inactive)

`O=C(O)C1CCN(Cc2c(-c3ccco3)nc3ccc(Cl)cn23)CC1` yielded IC50 of > 50 µM (inactive)

`C/C=C\C1=CC(=O)[C@]23C[C@H]2[C@]2(C)CO[C@@]1(O)[C@@]3(O)O2` yielded IC50 of > 50 µM (inactive)

====

# Tested System: OTU domain-containing protein 3 (Homo sapiens) (UniProt Q5T2D3)
# Run Description: Validation of screening hits, potency titration, in vitro enzymatic, OTU domain-containing protein 3 DUB inhibitors (AID 1645868)
# Condition Info: purified OTUD3, ubiquitin-rhodamine cleavage fluorescence, 2 h
Active and inactive are the calls of the source.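 How the source made its calls: active means maximal percent inhibition of the deubiquitinase OTUD3 of at least 30% across the tested doses; inactive means the rest.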
Measured IC50 by item

O=C(COC(=O)c1ccc(CN2CCCC2=O)cc1)c1ccc2c(c1)OCCO2: > 50 µM (inactive)

`O=C(CSc1nnc(-c2ccc3c(c2)OCO3)n1-c1ccccc1)OCC(=O)c1ccccc1` yielded IC50 of > 50 µM (inactive)

`NC(=O)C1(N2CCCCC2)CCN(C(=O)c2[nH]nc3c2CCc2ccccc2-3)CC1` yielded IC50 of > 50 µM (inactive)

CCOC(=O)C1CCN(C(=O)c2ccc3c(c2)NC(=O)C2CCCN32)CC1 (stereo unspecified) yielded IC50 of > 50 µM (inactive)

`CN(c1ccccc1)c1nc(=O)n(CC(=O)Nc2ccc3c(c2)OCCO3)c2ccccc12` yielded IC50 of > 50 µM (inactive)

`N#Cc1cc2c(nc1SCC(=O)NCc1ccccc1)CCCC2` yielded IC50 of > 50 µM (inactive)
